# System: ACHN
# protocol-summary: NCI tumour cell line growth inhibition, 48 h
Activity calls are given as the source filed them. Rule as the data show it: active = GI50 up to about 1.1 µM and inactive = higher.
Please state which outcome applies, choosing from class 1 = active, class 0 = inactive

Example cases with answers are listed next.
Query: I would be grateful if you could indicate the recorded call for C/C(=N\Nc1nc2ccccc2s1)c1cnccn1 .
Response: class 1

Query: I would be grateful if you could indicate the recorded call for CCN(CC)C(=O)Cn1c2c(c3ccccc31)CCCC2 .
Response: class 0

New cases:
Query: I would be grateful if you could indicate the recorded call for CC1CC(=O)Nc2nc3ccccc3n21 (stereo unspecified) .
Response: class 0

Query: I would be grateful if you could indicate the recorded call for CN(C)CCCC12CCCCC1=Nc1ccccc12 (stereo unspecified) .
Response: class 0

Query: I would be grateful if you could indicate the recorded call for COc1cccc(/C=N/C23CC4CC(CC(C4)C2)C3)c1 .
Response: class 0

Query: I would be grateful if you could indicate the recorded call for COc1ccc2[nH]c3c(c2c1)[C@H](C)C[C@@H]1C(=O)N(c2ccccc2)C(=O)[C@H]31 .
Response: class 0

Query: I would be grateful if you could indicate the recorded call for COC(=O)c1cc(C#N)[nH]c1-c1ccsc1 .
Response: class 0

Query: I would be grateful if you could indicate the recorded call for Cc1ccc(O)c(C(c2cccc(C(c3cc(C)ccc3O)c3cc(C)ccc3O)c2)c2cc(C)ccc2O)c1 .
Response: class 0

Query: I would be grateful if you could indicate the recorded call for O=C1C2C(C(=O)N1Cc1ccccc1)N(Cc1ccccc1)C(=O)N2Cc1ccccc1 (stereo unspecified) .
Response: class 0

Query: I would be grateful if you could indicate the recorded call for Nc1nc(Cl)cc(OCC2(CO)CC=CC2)n1 .
Response: class 0

Query: I would be grateful if you could indicate the recorded call for O=C1CC(C(O)(C(F)(F)F)C(F)(F)Cl)CCC1C(O)(C(F)(F)F)C(F)(F)Cl (stereo unspecified) .
Response: class 0

----------
# System: OVCAR-3
# protocol-summary: NCI tumour cell line growth inhibition, 48 h
Counter-ions that a name gives are not always drawn. Active and inactive are the calls of the source. No stated cut-off is given here; in the data, active = GI50 up to about 1.1 µM and inactive = higher.
metric: GI50

Query: For the compound shown here, CCCCCC(/C=C/[C@@H]1[C@H]2CC(=O)O[C@H]2C[C@H]1N1CCOCC1)OC1CCCO1 (stereo partly specified) , give the reported GI50.
Response: > 100 µM (inactive)

Query: For the compound shown here, CC12CCC(C(=O)OC1=O)C(C)(C)O2 (stereo unspecified) , give the reported GI50.
Response: > 100 µM (inactive)

New cases:
Query: For the compound shown here, BrCC[N+]12CC[N+](CCBr)(CC1)C2 , give the reported GI50.
Response: > 100 µM (inactive)

Query: For the compound shown here, COc1ccc([C@@H]2ON(C)[C@H]3CN(C)C(=O)[C@@H]23)cc1 , give the reported GI50.
Response: > 100 µM (inactive)

Query: For the compound shown here, CC(C)CS(=O)(=O)/C(=C(\c1ccc(Br)cc1)S(=O)(=O)CC(C)C)c1ccc(Br)cc1 , give the reported GI50.
Response: > 100 µM (inactive)

Query: For the compound shown here, N#CC(/C(CCCC(=O)Nc1cccc([N+](=O)[O-])c1)=N/NC(=O)c1cc2ccccc2cc1O)c1ccccc1 (stereo unspecified) , give the reported GI50.
Response: 25.8 µM (inactive)

Query: For the compound shown here, CC(C)/C=C1\CCC(CN2CCCC2)C1=O (stereo unspecified) , give the reported GI50.
Response: 17.4 µM (inactive)

Query: For the compound shown here, CN(C)C(Cc1c[nH]cn1)C(=O)N1CCCC1C(N)=O (stereo unspecified) , give the reported GI50.
Response: > 100 µM (inactive)

Query: For the compound shown here, CCOC(=O)c1c(SCCO)n(-c2ccccc2)c(=S)n(-c2ccccc2)c1=O , give the reported GI50.
Response: > 100 µM (inactive)

Query: For the compound shown here, COC(=O)N/N=C/c1oc(-c2ccccc2)c(-c2ccccc2)c1[N+](=O)[O-] , give the reported GI50.
Response: > 100 µM (inactive)

Query: For the compound shown here, COc1ccc2c(c1)CC1COc3cc(OC)ccc3C1O2 (stereo unspecified) , give the reported GI50.
Response: > 100 µM (inactive)

Query: For the compound shown here, CCOC(=O)C1=CN=C2C(=O)N(c3ccccc3)N(C)C2(C)C1=N (stereo unspecified) , give the reported GI50.
Response: > 100 µM (inactive)

Query: For the compound shown here, CCCN(CCC)C1=Nc2ccccc2-n2cnnc2C1 , give the reported GI50.
Response: > 100 µM (inactive)

Query: For the compound shown here, CC1=NC2(CCCCC2)N(Cl)C(=O)C1SC#N (stereo unspecified) , give the reported GI50.
Response: 19.6 µM (inactive)

Query: For the compound shown here, Cc1cc(C)c(-n2c(-c3ccc(Br)cc3)cs/c2=N\N=C2C=C(C(C)(C)C)C(=O)C(C(C)(C)C)=C2)c(C)c1 , give the reported GI50.
Response: > 100 µM (inactive)

Query: For the compound shown here, Cc1cc(=O)n2nc(CSc3nnc(Sc4cc(O)ccc4O)s3)sc2n1 , give the reported GI50.
Response: 34.4 µM (inactive)

Query: For the compound shown here, CC(=O)NNc1nc(C)c(C(=O)/C=C/C=C/c2ccccc2)s1 , give the reported GI50.
Response: 52.2 µM (inactive)

Query: For the compound shown here, CCS/C(=N\c1ccccc1)SC , give the reported GI50.
Response: > 100 µM (inactive)

Query: For the compound shown here, Cc1nccc2c1[nH]c1cc(O)ccc12 [HARMOL HYDROCHLORIDE] , give the reported GI50.
Response: 42.5 µM (inactive)

Query: For the compound shown here, CC1CC2C3CCC4=CC(=O)C=CC4(C)C3(F)C(O)CC2(C)C1(O)C(=O)COP(=O)(O)O (stereo unspecified) , give the reported GI50.
Response: > 100 µM (inactive)

Query: For the compound shown here, CC(=O)O[C@H]1[C@@H](N2CCCCC2)C[C@H]2[C@@H]3CC=C4C[C@@H](N5CCCC5)CC[C@]4(C)[C@H]3CC[C@@]21C , give the reported GI50.
Response: > 100 µM (inactive)
